Each recorded value in this set is attributed to ChEMBL document CHEMBL2169811.

- measured-target: N-lysine methyltransferase SMYD2 (Homo sapiens, UniProt Q9NRG4)
- Sequence (Q9NRG4 whole entry): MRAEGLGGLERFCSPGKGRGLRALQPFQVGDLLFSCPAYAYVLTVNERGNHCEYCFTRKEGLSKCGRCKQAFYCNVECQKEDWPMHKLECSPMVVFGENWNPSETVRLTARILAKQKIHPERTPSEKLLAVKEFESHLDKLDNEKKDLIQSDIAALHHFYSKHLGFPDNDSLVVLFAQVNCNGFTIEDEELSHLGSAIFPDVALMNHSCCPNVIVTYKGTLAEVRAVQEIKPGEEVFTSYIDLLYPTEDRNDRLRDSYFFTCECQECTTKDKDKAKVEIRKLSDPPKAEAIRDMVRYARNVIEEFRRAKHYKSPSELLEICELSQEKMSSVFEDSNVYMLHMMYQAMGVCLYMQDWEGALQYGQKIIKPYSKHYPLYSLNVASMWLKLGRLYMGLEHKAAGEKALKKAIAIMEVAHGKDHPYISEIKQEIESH
- protocol-description: Competitive binding affinity to full length human SMYD2 amino acid 1 to 433 expressed in Escherichia coli BL21 (DE3) after 90 mins by radioactive filter-binding assay in presence of P53 peptide

{"smiles-data": "O=C1COc2c(CCNCCN(C(=O)CCNCCc3ccc(Cl)c(Cl)c3)C3CCCCC3)ccc(O)c2N1", "measure-unit": "nM", "Ki": 300}
